# normalized RNA/DNA level without ligand (log10) per record follows
B1: library; a variant is named by its letters at N, in order (parent)
chain: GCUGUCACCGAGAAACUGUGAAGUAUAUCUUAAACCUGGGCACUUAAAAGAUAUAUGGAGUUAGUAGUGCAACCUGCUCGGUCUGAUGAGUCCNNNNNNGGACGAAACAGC

- Variants of: B1
- method.summary: normalized RNA/DNA level without ligand (relative to sTRSVctl = 100) (log10 (% of sTRSVctl)); HEK293T; ligand: cyclic di-GMP (c-di-GMP-II aptamer); higher = less ribozyme self-cleavage, higher mRNA level
- run.conditions: reporter: mCherry (pCS4076), ligand present: no
Answer using only a numeral; do not append any unit.

Some variants with known normalized RNA/DNA level without ligand (log10) results, for comparison:
CAAUAG
1.73
UUGUAU
1.66
UAGUAU
1.61
AAUAUA
1.53

query: # return recorded normalized RNA/DNA level without ligand (log10) for entry AGCACG
result: 1.61

query: Return reported normalized RNA/DNA level without ligand (log10). Input variant: UUCCAU
result: 1.73
